Test system: NLRP3 inflammasome (IL-1β production in THP-1 cells)
Experiment: IL-1β TR-FRET Assay (percentage of inhibition at 300 nM, 6 μM or 10 μM)
Assay type: cell-based, human
Settings: Homo sapiens, THP-1, 6 μM, LPS priming, ATP activation, read-out: IL-1β inhibitory rate at 6 μM (%)
OBSERVED_PROPERTY: inhibition at 6 µM (%)

compound=CO[C@H]1C[C@H](Oc2nc3nn(-c4ccc(C)cc4C)cc3c(=O)[nH]2)C1 display_unit=% quantitative_result=100
compound=CCOc1nc2nn(-c3c(C)cc(C4CC4)nc3C(F)(F)F)cc2c(=O)[nH]1 display_unit=% quantitative_result=100
compound=Cc1cc(-c2nc3nn(-c4c(C)cc(C5CC5)cc4C)cc3c(=O)[nH]2)no1 display_unit=% quantitative_result=102
compound=Cc1cc(C2CC2)cc(C)c1-n1cc2c(=O)[nH]c(CO)nc2n1 display_unit=% quantitative_result=103
compound=CCc1nc2nn(-c3ccc(C4CC4)c(C(F)F)c3F)cc2c(=O)[nH]1 display_unit=% quantitative_result=98
compound=Cc1ncc(-c2nc3nn(-c4c(C)cc(C5CC5)cc4C)cc3c(=O)[nH]2)o1 display_unit=% quantitative_result=99
compound="O=c1[nH]c(C2COCCO2)nc2nn(-c3c(F)cc(C4CC4)cc3C(F)F)cc12 (racemic)" display_unit=% quantitative_result=103
compound=CCc1nc2nn(-c3c(F)cc(C4CC4)cc3C(F)F)cc2c(=O)[nH]1 display_unit=% quantitative_result=105
compound=CCn1ncc(-c2nc3nn(-c4c(C)cc(C5CC5)cc4C)cc3c(=O)[nH]2)n1 display_unit=% quantitative_result=99
compound=CCOc1nc2nn(-c3c(Br)cc(Br)cc3C(F)F)cc2c(=O)[nH]1 display_unit=% quantitative_result=105
compound=COCCOc1nc2nn(-c3c(C)cc(C4CC4)cc3CC(F)(F)F)cc2c(=O)[nH]1 display_unit=% quantitative_result=90
compound=Cc1cc(C2CC2)cc(C)c1-n1cc2c(=O)[nH]c(CN3CCCO3)nc2n1 display_unit=% quantitative_result=98
compound="CO[C@H]1COCC[C@@H]1c1nc2nn(-c3c(C)cc(C4CC4)cc3C)cc2c(=O)[nH]1 (racemic)" display_unit=% quantitative_result=102
compound=COCc1nc2nn(-c3c(C(F)F)cc(C4CC4)c(C4CC4)c3C)cc2c(=O)[nH]1 display_unit=% quantitative_result=94
compound=COCCOc1nc2nn(-c3c(C)cc(C4(F)CC4)cc3C)cc2c(=O)[nH]1 display_unit=% quantitative_result=101
compound=Cc1cc(C2CC2)cc(C)c1-n1cc2c(=O)[nH]c(CC#N)nc2n1 display_unit=% quantitative_result=100
compound=Cc1cc(C2(F)CC2)cc(C)c1-n1cc2c(=O)[nH]c(-c3ccn(C)n3)nc2n1 display_unit=% quantitative_result=101
